Each entry below lists one item and its recorded apparent Kd value.
System: MS2 coat protein
EXPERIMENT SUMMARY: apparent Kd, MS2 coat protein; higher = weaker binding; RNA-MaP array
TEST CONTEXT: ligand present: flavin mononucleotide; designed as: OFF switch for flavin mononucleotide
Give the quantity in µM, number only.

Solved cases (3 shown):
CGCCCGAAAGGAUAUACAUGAGGAUCACCCAUGUUUCUAGCAAAAUGACCCUCAAUUCGUAGAAGGUUCCGAGU
0.0361
GUCGCAUGAGGAUAUACAUGAGGAUCACCCAUGUAUCUACGCAUGGGAAGACACCAAUGUAGAAGGCAUCUCAA
0.0215
ACAACUGCAGGAUAUACGAGGGCCGAGGUAUCCGUCCUCGGACAUGAGGAUCACCCAUGUAGAAGGGCAACGAU
0.0241

Next:
Data request: Entry AGAUCCUAAGUAAGGAUAUACCUCGCACACAAGUCGUAGAAGGUACAUGAGGAUCACCCAUGUAGGAAAGUACU , system MS2 coat protein: what apparent Kd was measured?
Data returned: 0.0153

Every entry's value here was drawn from the EternaBench riboswitch data.
